System: human G12D mutant KRAS-positive pancreatic cancer line AsPC-1
procedure text: Non-anchorage-dependent cell growth inhibition, spheroid 3D cell culture (Test Example 3)
Format: cell-based
test parameters: Homo sapiens, ASPC1, 144 h, AsPC-1 spheroid 3D culture, 6 days, CellTiter Glo 2.0
parameter measured: pIC50
pIC50 here: minus log base 10 of the concentration, concentration in moles per litre.

Data request: # query: pIC50 of entry Cc1ncsc1-c1ccc([C@H](CO)NC(=O)[C@@H]2C[C@@H](O)CN2C(=O)[C@H](C(C)C)n2cc(-c3ccc(COc4c(-c5c(C)c(F)cc6[nH]ncc56)c(C5CC5)cc5c(N[C@@H]6CNC[C@@H]6O)nc(OC6CCOCC6)nc45)cc3)nn2)cc1 (atropisomer, axis not shown) [Example 7]
Data returned: 7.64

Data request: # query: pIC50 of entry Cc1ncoc1-c1ccc([C@H](CO)NC(=O)[C@@H]2C[C@@H](O)CN2C(=O)[C@H](C(C)C)n2cc(-c3ccc(COc4c(-c5c(C)c(F)cc6[nH]ncc56)c(C5CC5)cc5c(N(C)[C@H]6CCNC6)nc(OC[C@H]6CCCO6)nc45)cc3)nn2)cc1 (atropisomer, axis not shown) [Example 31]
Data returned: 7.74

Data request: # query: pIC50 of entry CCN(c1nc(OC[C@H](C)OC)nc2c(OCc3ccc(-c4cn([C@H](C(=O)N5C[C@H](O)C[C@H]5C(=O)N[C@@H](CO)c5ccc(-c6scnc6C)cc5)C(C)C)nn4)cc3)c(-c3c(C)c(F)cc4[nH]ncc34)c(C3CC3)cc12)[C@H]1CCNC1 (atropisomer, axis not shown; (M)) [Example 50]
Data returned: 8.10

* * *

tgt: KRAS G12D protein (Homo sapiens, UniProt P01116, G12D)
Construct: host or cells: AsPC-1
Sequence (P01116 1-188 isoform P01116-2 G12D): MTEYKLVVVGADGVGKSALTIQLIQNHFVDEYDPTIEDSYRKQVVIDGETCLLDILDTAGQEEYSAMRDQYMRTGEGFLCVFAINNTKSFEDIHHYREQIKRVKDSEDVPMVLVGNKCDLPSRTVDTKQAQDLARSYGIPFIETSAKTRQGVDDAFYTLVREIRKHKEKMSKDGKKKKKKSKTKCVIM
procedure text: KRAS degradation activity by Cell ELISA in AsPC-1 (Test Example 1)
Assay type: cell-based
test parameters: AsPC-1 cells, cultured overnight with compound, corrected with β-actin, read-out: DC50 (50% degradation concentration of the amounts of KRAS)
parameter measured: DC50 (µM)
// units = µM; emit number, no label

Data request: # query: DC50 of entry Cc1ncsc1-c1ccc([C@H](CO)NC(=O)[C@@H]2C[C@@H](O)CN2C(=O)[C@H](C(C)C)n2cc(-c3ccc(COc4c(-c5c(C)c(F)cc6[nH]ncc56)c(C5CC5)cc5c(N(C)[C@H]6CCNC6)nc(OC[C@H]6CCN(C)C6)nc45)cc3)nn2)cc1 (atropisomer, axis not shown) [Example 18]
Data returned: 0.508

Data request: # query: DC50 of entry CO[C@@H](C)COc1nc(N(C)[C@@H]2CCNC2)c2cc(C3CC3)c(-c3c(C)c(F)cc4[nH]ncc34)c(OCc3ccc(-c4cn([C@H](C(=O)N5C[C@H](O)C[C@H]5C(=O)N[C@@H](CO)c5ccc(-c6scnc6C)cc5)C(C)C)nn4)cc3)c2n1 (atropisomer, axis not shown; (M)) [Example 53]
Data returned: 0.007

Data request: # query: DC50 of entry CO[C@@H](C)COc1nc(N(C)[C@H]2CCNC2)c2cc(C3CC3)c(-c3c(C)c(F)cc4[nH]ncc34)c(OCc3ccc(-c4cn([C@H](C(=O)N5C[C@H](O)C[C@H]5C(=O)N[C@@H](CO)c5ccc(-c6scnc6C)cc5)C(C)C)nn4)nc3)c2n1 (atropisomer, axis not shown) [Example 45]
Data returned: 0.027

* * *

tgt: KRAS G12D protein (Homo sapiens, UniProt P01116, G12D)
Construct: host or cells: AsPC-1
procedure text: KRAS degradation activity by Cell ELISA in AsPC-1 (Test Example 1)
Assay type: cell-based
test parameters: AsPC-1 cells, cultured overnight with compound, corrected with β-actin, read-out: DC50 (50% degradation concentration of the amounts of KRAS)
Please respond with reported DC50 for every item in the list.
// units = µM; emit number, no label

Data request: # query: DC50 of entry Cc1ncsc1-c1ccc([C@H](CO)NC(=O)[C@@H]2C[C@@H](O)CN2C(=O)[C@H](C(C)C)n2cc(-c3ccc(COc4c(-c5c(C)c(F)cc6[nH]ncc56)c(C5CC5)cc5c(N(C)[C@H]6CCNC6)nc(OCC(C)(F)F)nc45)cc3)nn2)cc1 (atropisomer, axis not shown)
Data returned: 0.082

Data request: # query: DC50 of entry Cc1ncoc1-c1ccc([C@H](CO)NC(=O)[C@@H]2C[C@@H](O)CN2C(=O)[C@H](C(C)C)n2cc(-c3ccc(COc4c(-c5c(C)c(F)cc6[nH]ncc56)c(C5CC5)cc5c(N(C)[C@H]6CCNC6)nc(OC[C@H]6CCCO6)nc45)cc3)nn2)cc1 (atropisomer, axis not shown)
Data returned: 0.059

Data request: # query: DC50 of entry Cc1ncoc1-c1ccc([C@H](CO)NC(=O)[C@@H]2C[C@@H](O)CN2C(=O)[C@H](C(C)C)n2cc(-c3ccc(COc4c(-c5c(C)c(F)cc6[nH]ncc56)c(C5CC5)cc5c(N(C)[C@H]6CCNC6)nc(OC[C@@H]6CCCO6)nc45)cc3)nn2)cc1 (atropisomer, axis not shown)
Data returned: 0.047

* * *

Please respond with reported pIC50 for every item in the list.
Tested on: human G12D mutant KRAS-positive pancreatic cancer line AsPC-1
procedure text: Non-anchorage-dependent cell growth inhibition, spheroid 3D cell culture (Test Example 3)
Format: cell-based
test parameters: Homo sapiens, ASPC1, 144 h, AsPC-1 spheroid 3D culture, 6 days, CellTiter Glo 2.0
pIC50 here: minus log base 10 of the concentration, concentration in moles per litre.

Data request: Item: CCn1nccc1-c1ccc([C@H](CO)NC(=O)[C@@H]2C[C@@H](O)CN2C(=O)[C@H](C(C)C)n2cc(-c3ccc(COc4c(-c5c(C)c(F)cc6[nH]ncc56)c(C5CC5)cc5c(N(C)[C@H]6CCNC6)nc(OC[C@H](C)OC)nc45)cc3)nn2)cc1 (atropisomer, axis not shown; (M)) [Example 13] Test system: human G12D mutant KRAS-positive pancreatic cancer line AsPC-1 Read-out: pIC50 Value: ?
Data returned: 8.00

Data request: Item: Cc1ncsc1-c1ccc([C@H](CO)NC(=O)[C@@H]2C[C@@H](O)CN2C(=O)[C@H](C(C)C)n2cc(-c3ccc(COc4c(-c5c(C)c(F)cc6[nH]ncc56)c(C5CC5)cc5c(N(C)[C@H]6CCNC6)nc(OC6CCOCC6)nc45)cc3)nn2)cc1 (atropisomer, axis not shown) [Example 8] Test system: human G12D mutant KRAS-positive pancreatic cancer line AsPC-1 Read-out: pIC50 Value: ?
Data returned: 7.80

Data request: Item: CCn1nccc1-c1ccc([C@H](CO)NC(=O)[C@@H]2C[C@@H](O)CN2C(=O)[C@H](C(C)C)n2cc(-c3ccc(COc4c(-c5c(C)c(F)cc6[nH]ncc56)c(C5CC5)cc5c(N(C)[C@H]6CCNC6)nc(OC[C@H](C)OC)nc45)cc3)nn2)nc1 (atropisomer, axis not shown) [Example 25] Test system: human G12D mutant KRAS-positive pancreatic cancer line AsPC-1 Read-out: pIC50 Value: ?
Data returned: 8.22

Data request: Item: CO[C@@H](C)COc1nc(N2CCNCC2)c2cc(C3CC3)c(-c3c(C)c(F)cc4[nH]ncc34)c(OCc3ccc(-c4cn([C@H](C(=O)N5C[C@H](O)C[C@H]5C(=O)N[C@@H](CO)c5ccc(-c6scnc6C)cc5)C(C)C)nn4)cc3)c2n1 (atropisomer, axis not shown) [Example 54] Test system: human G12D mutant KRAS-positive pancreatic cancer line AsPC-1 Read-out: pIC50 Value: ?
Data returned: 8.15

Data request: Item: CO[C@H](C)COc1nc(N(C)[C@H]2CCNC2)c2cc(C3CC3)c(-c3c(C)c(F)cc4[nH]ncc34)c(OCc3ccc(-c4cn([C@H](C(=O)N5C[C@H](O)C[C@H]5C(=O)N[C@@H](CO)c5ccc(-c6scnc6C)cc5)C(C)C)nn4)cc3)c2n1 (atropisomer, axis not shown) [Example 16] Test system: human G12D mutant KRAS-positive pancreatic cancer line AsPC-1 Read-out: pIC50 Value: ?
Data returned: 7.85

* * *

System: human G12D mutant KRAS-positive pancreatic cancer line AsPC-1
procedure text: Non-anchorage-dependent cell growth inhibition, spheroid 3D cell culture (Test Example 3)
Type: cell-based
test parameters: Homo sapiens, ASPC1, 144 h, AsPC-1 spheroid 3D culture, 6 days, CellTiter Glo 2.0
Please respond with reported pIC50 for every item in the list.
pIC50 here: minus log base 10 of the concentration, concentration in moles per litre.

Data request: # query: pIC50 of entry COCCOc1nc(N(C)[C@H]2CCNC2)c2cc(C3CC3)c(-c3c(C)c(F)cc4[nH]ncc34)c(OCc3ccc(-c4cn([C@H](C(=O)N5C[C@H](O)C[C@H]5C(=O)N[C@@H](CO)c5ccc(-c6scnc6C)cc5)C(C)C)nn4)cc3)c2n1 (atropisomer, axis not shown) [Example 24]
Data returned: 7.59

Data request: # query: pIC50 of entry Cc1ncsc1-c1ccc([C@H](CO)NC(=O)[C@@H]2C[C@@H](O)CN2C(=O)[C@H](C(C)C)n2cc(-c3ccc(COc4c(-c5c(C)c(F)cc6[nH]ncc56)c(C5CC5)cc5c(O[C@H]6CCNC6)nc(OC6CCOCC6)nc45)cc3)nn2)cc1 (atropisomer, axis not shown) [Example 1]
Data returned: 8.05

Data request: # query: pIC50 of entry CO[C@H](COc1nc(N(C)[C@H]2CCNC2)c2cc(C3CC3)c(-c3c(C)c(F)cc4[nH]ncc34)c(OCc3ccc(-c4cn([C@H](C(=O)N5C[C@H](O)C[C@H]5C(=O)N[C@@H](CO)c5ccc(-c6scnc6C)cc5)C(C)C)nn4)cc3)c2n1)C(F)F (atropisomer, axis not shown) [Example 43]
Data returned: 8.22

Data request: # query: pIC50 of entry CO[C@@H](C)COc1nc(N(C)[C@H]2CCNC2)c2cc(C3CC3)c(-c3c(C)c(F)cc4[nH]ncc34)c(OCc3ccc(-c4cn([C@H](C(=O)N5C[C@H](O)C[C@H]5C(=O)N[C@@H](CO)c5ccc(-c6scnc6C)cc5)C(C)C)nn4)nc3)c2n1 (atropisomer, axis not shown) [Example 45]
Data returned: 7.82

Data request: # query: pIC50 of entry Cc1ncsc1-c1ccc([C@H](CO)NC(=O)[C@@H]2C[C@@H](O)CN2C(=O)[C@H](C(C)C)n2cc(-c3ccc(COc4c(-c5c(C)c(F)cc6[nH]ncc56)c(C5CC5)cc5c(N(C)[C@H]6CCNC6)nc(OCC(C)(C)F)nc45)cc3)nn2)cc1 (atropisomer, axis not shown) [Example 33]
Data returned: 7.62

Data request: # query: pIC50 of entry Cc1ncsc1-c1ccc([C@H](CO)NC(=O)[C@@H]2C[C@@H](O)CN2C(=O)[C@H](C(C)C)n2cc(-c3ccc(COc4c(-c5c(C)c(F)cc6[nH]ncc56)c(C5CC5)cc5c(N(C)[C@H]6CCNC6)nc(OC[C@@H]6CCCO6)nc45)cc3)nn2)cc1 (atropisomer, axis not shown; (M)) [Example 10]
Data returned: 8.22

Data request: # query: pIC50 of entry CO[C@H](CF)COc1nc(N(C)[C@H]2CCNC2)c2cc(C3CC3)c(-c3c(C)c(F)cc4[nH]ncc34)c(OCc3ccc(-c4cn([C@H](C(=O)N5C[C@H](O)C[C@H]5C(=O)N[C@@H](CO)c5ccc(-c6scnc6C)cc5)C(C)C)nn4)cc3)c2n1 (atropisomer, axis not shown) [Example 46]
Data returned: 8.30

Data request: # query: pIC50 of entry CO[C@@H](C)COc1cc(N2C[C@@H]3C[C@H]2CN3)c2cc(C3CC3)c(-c3c(C)c(F)cc4[nH]ncc34)c(OCc3ccc(-c4cn([C@H](C(=O)N5C[C@H](O)C[C@H]5C(=O)N[C@@H](CO)c5ccc(-c6scnc6C)cc5)C(C)C)nn4)cc3)c2n1 [Example 55]
Data returned: 7.82

Data request: # query: pIC50 of entry CO[C@@H](C)COc1nc(N(C)[C@H]2CCNC2)c2cc(C3CC3)c(-c3c(C)c(F)cc4[nH]ncc34)c(OCc3ccc(-c4cn([C@H](C(=O)N5C[C@H](O)C[C@H]5C(=O)N[C@@H](CO)c5ccc(F)cc5)C(C)C)nn4)cc3)c2n1 (atropisomer, axis not shown) [Example 12]
Data returned: 7.39

Data request: # query: pIC50 of entry Cc1ncsc1-c1ccc([C@H](CO)NC(=O)[C@@H]2C[C@@H](O)CN2C(=O)[C@H](C(C)C)n2cc(-c3ccc(COc4c(-c5c(C)c(F)cc6[nH]ncc56)c(C5CC5)cc5c(N(C)[C@H]6CCNC6)nc(O[C@@H](C)[C@H](C)O)nc45)cc3)nn2)cc1 (atropisomer, axis not shown) [Example 19]
Data returned: 7.30
